Test system: TAG
Assay: TAG lipid buildup inhibition with viability readout – cell-based, panel, Nile Red and DAPI fluorescence, H9c2, dose response (AID 651630);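 also: cells exposed to compound overnight before fixation and staining; hits lower the Nile Red lipid signal and are scored as TAG inhibitors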
Conditions: H9c2 cells, Nile Red TAG fluorescence, oleic acid, mean of runs
Activity calls are given as the source filed them.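 The calls were made as follows: active = lipid-stain IC50 at or below a set limit, with nuclear-stain toxicity IC50 at least five times higher; inactive = the rest.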
Classes used: active, inactive

compound=COC(=O)c1ccc(/C=C/c2c(-c3ccsc3)oc3ccc(N4CCOCC4)cc23)cc1 target_or_test_system=TAG label_value=inactive
compound=O=C1c2ccccc2C(=O)c2c1ccc(C(=O)N1CCCCC1)c2NCCO target_or_test_system=TAG label_value=active
compound="COc1cc(/C=C/CN2CCC(C(=O)NC(c3ccc(F)cc3)c3ccc4ccccc4n3)CC2)ccc1OC(C)=O (stereo not drawn)" target_or_test_system=TAG label_value=active
compound=Cc1cc(=O)oc2cc(NC(=O)c3cccc(Br)c3)ccc12 target_or_test_system=TAG label_value=inactive
compound=COC(=O)C1=C(c2cc3ccccc3s2)C[C@@H]2CC[C@H]1N2C(=O)N1CCOCC1 target_or_test_system=TAG label_value=inactive
compound=Fc1ccc(Oc2nc(-c3ccccn3)nc3ccccc23)cc1 target_or_test_system=TAG label_value=inactive
compound=COc1ccc(CC(=O)Nc2ccc(-c3nnc(-c4ccc(C)cc4)o3)cc2)cc1 target_or_test_system=TAG label_value=inactive
compound=COc1ccc(-c2ccc3[nH]c4c(c3c2)CCN2C(=O)[C@@H]([C@H](C)O)[C@@H](N(C)C(=O)Nc3cc(Cl)cc(Cl)c3)C[C@@H]42)cc1 target_or_test_system=TAG label_value=inactive
compound="Nc1c(Cl)cc(-c2csc(N3CCCC3c3nc4cc(Cl)c(N5CCCCC5)cc4n3CCCO)n2)cc1Cl (stereo not drawn)" target_or_test_system=TAG label_value=active
compound=COc1ccc(-c2ccc3[nH]c4c(c3c2)CCN2C[C@@H]([C@H](C)OC(=O)Nc3cc(Cl)cc(Cl)c3)[C@@H](N(C)C(=O)Nc3cc(Cl)cc(Cl)c3)C[C@@H]42)cc1 target_or_test_system=TAG label_value=active
compound=O=C(CSc1cccc2cccnc12)Nc1ccc(S(=O)(=O)N2CCOCC2)cc1 target_or_test_system=TAG label_value=inactive
compound=Cc1cccc(N2CCN(C(=O)c3c(-c4ccccc4Cl)noc3C)CC2)c1C target_or_test_system=TAG label_value=inactive
compound="Nc1c(Cl)cc(-c2csc(N3CCCC3c3nc4cc(Cl)c(Cl)cc4n3CCCO)n2)cc1Cl (stereo not drawn)" target_or_test_system=TAG label_value=active
compound=O=C(N/N=C/c1ccc(Cl)cc1)c1sccc1OCc1ccc(F)cc1 target_or_test_system=TAG label_value=inactive
compound=O=C(Nc1cccc(-c2csc(Nc3ccc(Cl)cc3)n2)c1)c1cc([N+](=O)[O-])cc(C(F)(F)F)c1 target_or_test_system=TAG label_value=active
compound="CC(Sc1nc(NCc2ccccc2)nc(N2CCOCC2)n1)C(=O)Nc1ccccc1 (stereo not drawn)" target_or_test_system=TAG label_value=active
compound="CCCCCc1cc(=O)oc2c(C(CCN(CC)CC)c3cc(OC)c(OC)c(OC)c3)c(OC)cc(OC)c12 (stereo not drawn)" target_or_test_system=TAG label_value=inactive
compound="N#CC(C#N)=c1ccc2c(c1)N1C(c3ccccc3)=CC(c3ccccc3)C3CCCCC31N=2 (stereo not drawn)" target_or_test_system=TAG label_value=active
